Let's look at some molecules and their measured ESI positive response factor.
Assay: ESI positive response factor (isotope-corrected peak area per molar concentration) in SFC/ESI/HRMS (area units per M); higher = higher ionization efficiency;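 further: standards in acetonitrile/water run in triplicate on a zwitterionic HILIC column, CO2–methanol gradient containing 20 mmol/L ammonium acetate, postcolumn makeup flow, Orbitrap full-scan detection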
Conditions: 0.875 µM
// keep it numeric: no unit symbol after the value

Completed entries (count: 3):
INSERT INTO assay_data (molecule, experimental_endpoint, measured_number) VALUES
  ('NCC1CCC(C(=O)O)CC1 (stereo not given) [Tranexamic acid]', 'ESI positive response factor', '6.01e+16'),
  ('OCCN1C[C@H](O)[C@@H](O)[C@H](O)[C@H]1CO [Miglitol]', 'ESI positive response factor', '1.42e+16'),
  ('Nc1ccnc(=O)[nH]1 [Cytosine]', 'ESI positive response factor', '3.21e+15');

# input Quote ESI positive response factor reported for O=C(O)C(c1ccccc1)C1CCCCN1 (stereo not given) [Ritalinic acid] please.
# output 1.17e+17

# input Quote ESI positive response factor reported for O=C(O)Cc1ccccc1Nc1c(Cl)cccc1Cl [Diclofenac] please.
# output 5.3e+15

# input Quote ESI positive response factor reported for CC(C)C[C@H](CN)CC(=O)O [Pregabalin] please.
# output 1.58e+16

# input Quote ESI positive response factor reported for Nc1nc(N)c2nc(CO)cnc2n1 [2,4-Diamino-6-(hydroxymethyl)pteridine] please.
# output 4.05e+16

# input Quote ESI positive response factor reported for CC(=O)N1CC(O)C[C@H]1C(=O)O (stereo in doubt) [Trans-1-acetyl-4-hydroxy-L-prolin] please.
# output 6.4e+15

# input Quote ESI positive response factor reported for COc1nc(C)nc(NC(=O)NS(=O)(=O)c2ccccc2Cl)n1 [Chlorsulfuron] please.
# output 5.75e+16
